- system tested: HLA-A3303 (Homo sapiens, UniProt P04439, A270S/D185E/E176V/E277Q/E87N/F33T/G231S/H175R/I121M/I218V/I322F/K168Q/L300P/L318F/M331R/P217A/Q86R/Q94H/R138Q/T323A/T345S/T97I/V358M)
- assay text: cell-based
- Method: HMy2.CIR cell line was purchased (Zhongqiao xinzhou Biotech, Shanghai) and maintained in complete IMDM medium with 10% FCS and 1% penicillin/streptomycin. […] The plate was centrifuged at 600 rpm for 5 min at room temperature (RT). […] Finally, cells were resuspended with 150 μL PBS and analyzed with flow cytometry. […] Binding affinity of unlabeled peptide with the indicated HLA-A molecule is assessed by IC50.
pIC50: −log10 of the molar value.
property: pIC50

Data request: I'd like to know its pIC50. The molecule in question is CC[C@H](C)[C@H](NC(=O)[C@H](Cc1c[nH]c2ccccc12)NC(=O)[C@@H](NC(=O)CNC(=O)[C@H](Cc1ccccc1)NC(=O)[C@H](CO)NC(=O)[C@@H](NC(=O)[C@H](CC(C)C)NC(=O)[C@@H](N)Cc1ccc(O)cc1)C(C)C)C(C)C)C(=O)O [Epitope P11]
Data returned: < 4.82
